study system: T1, human ROR1 (hROR1) on cells (human, UniProt Q01973 30-937)
T1 construct: whole, on cells; the cell line is named under assay; also called HEK293T-hROR1; 293T-hROR1
T1 sequence (Q01973 30-937): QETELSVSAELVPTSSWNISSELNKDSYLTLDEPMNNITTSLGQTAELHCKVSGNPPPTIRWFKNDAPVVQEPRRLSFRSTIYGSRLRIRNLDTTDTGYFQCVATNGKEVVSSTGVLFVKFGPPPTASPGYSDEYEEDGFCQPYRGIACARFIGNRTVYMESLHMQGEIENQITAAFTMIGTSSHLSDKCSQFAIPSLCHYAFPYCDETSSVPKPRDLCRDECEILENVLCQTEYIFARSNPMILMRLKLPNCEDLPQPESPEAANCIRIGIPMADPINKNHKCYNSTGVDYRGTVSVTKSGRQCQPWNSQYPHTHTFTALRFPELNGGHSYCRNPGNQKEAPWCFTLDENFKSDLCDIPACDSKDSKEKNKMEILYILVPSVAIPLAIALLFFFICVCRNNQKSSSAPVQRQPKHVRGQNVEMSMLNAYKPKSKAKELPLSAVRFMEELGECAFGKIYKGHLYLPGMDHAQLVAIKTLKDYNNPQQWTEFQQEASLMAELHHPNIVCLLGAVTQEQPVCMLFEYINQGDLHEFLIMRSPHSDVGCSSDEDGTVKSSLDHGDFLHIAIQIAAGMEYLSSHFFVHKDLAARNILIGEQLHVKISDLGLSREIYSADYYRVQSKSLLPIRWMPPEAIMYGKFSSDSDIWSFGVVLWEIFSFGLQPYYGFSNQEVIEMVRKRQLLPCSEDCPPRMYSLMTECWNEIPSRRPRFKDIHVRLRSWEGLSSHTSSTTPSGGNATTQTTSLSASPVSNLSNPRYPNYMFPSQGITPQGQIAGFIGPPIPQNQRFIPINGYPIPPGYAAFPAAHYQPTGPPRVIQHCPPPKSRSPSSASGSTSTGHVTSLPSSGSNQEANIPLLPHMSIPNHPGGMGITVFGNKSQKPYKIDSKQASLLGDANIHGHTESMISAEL
assay comment: FACS, HEK293T-hROR1 cells; also: test concentration or dose not given here
assay metric: MFI (MFI)
Give your result in MFI as a bare value.

>>> observed_measurement("PR002567 (antibody, human IgG1, kappa, V domains shown, PR001354 variant: VH G55A; hIgG1; also called anti-ROR1 1015M2-C9(H: G55A) hIgG1) VH: QVQLVQSGGGVVQPGRSLRLSCAASGFTFSSYGMHWVRQAPGKGLEWVAIMWYDASDKDYADSVKGRFTISRDTSKNTLYLQMNSLRAEDTAVYYCAREQARSFDLWGRGTLVTVSS VL: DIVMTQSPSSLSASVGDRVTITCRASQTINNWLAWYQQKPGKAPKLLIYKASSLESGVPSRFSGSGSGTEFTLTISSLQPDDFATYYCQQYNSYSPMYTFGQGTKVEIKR")
41900

Proceed to the following item.
[ask] Could you share which MFI value was measured for PR002577 (antibody, human IgG1, kappa, V domains shown, PR001364 variant: VH G55A; hIgG1; also called anti-ROR1 1015M3-D8(H: G55A) hIgG1) VH: EVQLLESGGGVVQPGRSLRLSCAASGFTFSSFGMHWVRQAPGKGLEWVAVIWYDASDKDYADSVKGRFTISRDTSKNTLYLQMNSLRAEDTAVYYCAREQARSFDLWGRGTLVTVSS VL: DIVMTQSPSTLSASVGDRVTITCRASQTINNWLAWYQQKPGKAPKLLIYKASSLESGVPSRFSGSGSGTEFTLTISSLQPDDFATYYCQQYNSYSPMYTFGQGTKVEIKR ?
[reply] 44200
